Assay: Antioxidant activity assessed as ABTS radical scavenging activity at 2 mM
Type: functional
Give inhibition for every item shown.
Record the value in %, omitting the unit from your answer.

Quick one: inhibition of O=c1[nH]c(=S)[nH]c2c1C(c1ccc(Cl)cc1)C1=C(N2)/C(=C/c2ccc(Cl)cc2)CCC1 (stereo unspecified) ? 59.3

Quick one: inhibition of CCSc1nc2nc3c(c(-c4ccc(Cl)cc4)c2c(=O)n1CC)CCC/C3=C/c1ccc(Cl)cc1 ? 35.2

Quick one: inhibition of CC(=O)CSc1nc2nc3c(c(-c4ccc(Cl)cc4)c2c(=O)[nH]1)CCC/C3=C/c1ccc(Cl)cc1 ? 35.2

Quick one: inhibition of O=c1/c(=C/c2ccccc2)sc2nc3nc4c(c(-c5ccc(Cl)cc5)c3c(=O)n12)CCC/C4=C/c1ccc(Cl)cc1 ? 40.7

Quick one: inhibition of CSc1nc2nc3c(c(-c4ccc(Cl)cc4)c2c(=O)[nH]1)CCC/C3=C/c1ccc(Cl)cc1 ? 33.3

Quick one: inhibition of CCn1c(SC)nc2nc3c(c(-c4ccc(Cl)cc4)c2c1=O)CCC/C3=C/c1ccc(Cl)cc1 ? 37

Quick one: inhibition of Cc1c(C(=O)/C=C/c2ccccc2)sc2nc3nc4c(c(-c5ccc(Cl)cc5)c3c(=O)n12)CCC/C4=C/c1ccc(Cl)cc1 ? 38.9

Quick one: inhibition of COc1ccc(/C=c2\sc3nc4nc5c(c(-c6ccc(Cl)cc6)c4c(=O)n3c2=O)CCC/C5=C/c2ccc(Cl)cc2)cc1 ? 33.3

Quick one: inhibition of Nc1ccc(/C=C2/CCCc3c2nc2nc4s/c(=C\c5cccs5)c(=O)n4c(=O)c2c3-c2ccc(N)cc2)cc1 ? 25.9

Quick one: inhibition of O=C(CSc1nc2nc3c(c(-c4ccc(Cl)cc4)c2c(=O)[nH]1)CCC/C3=C/c1ccc(Cl)cc1)c1ccccc1 ? 33.3

Quick one: inhibition of CC(=O)C(Sc1nc2nc3c(c(-c4ccc(Cl)cc4)c2c(=O)[nH]1)CCC/C3=C/c1ccc(Cl)cc1)C(C)=O ? 42.6

Quick one: inhibition of Nc1ccc(/C=C2/CCCc3c2nc2nc4sc5c(n4c(=O)c2c3-c2ccc(Cl)cc2)ONC5c2cccs2)cc1 (stereo unspecified) ? 29.6

Quick one: inhibition of C/C(=N/O)c1sc2nc3nc4c(c(-c5ccc(Cl)cc5)c3c(=O)n2c1C)CCC/C4=C/c1ccc(Cl)cc1 ? 48.1

Quick one: inhibition of CCSc1nc2nc3c(c(-c4ccc(Cl)cc4)c2c(=O)[nH]1)CCC/C3=C/c1ccc(Cl)cc1 ? 37

Quick one: inhibition of CCSc1nc2nc3c(c(-c4ccc(Cl)cc4)c2c(=O)n1C)CCC/C3=C/c1ccc(Cl)cc1 ? 31.5

Quick one: inhibition of COc1ccc(C2NOc3c2sc2nc4nc5c(c(-c6ccc(Cl)cc6)c4c(=O)n32)CCC/C5=C/c2ccc(Cl)cc2)cc1 (stereo unspecified) ? 24.1
